test system: winter wheat (Triticum aestivum); experiment: Test C pre-/postemergence plant response; type: in vivo; conditions: Preemergence, 62 g ai/ha; scale 0 to 100, 0 no effect, 100 complete control
Values of Plant response rating, Wheat, Winter greater than or equal to 60 map to rule met; values below map to rule not met.

// below: answered compounds
[
  {
    "COMPOUND": "COC(=O)Oc1cnn(C)c(=O)c1-n1nc(-c2ccc(Cl)cc2)cc1C [Compound 33]",
    "CLASS ASSIGNMENT": "rule not met"
  },
  {
    "COMPOUND": "CCc1cc(-c2ccc(C(F)(F)F)cc2)nn1-c1c(O)cnn(C)c1=O [Compound 11]",
    "CLASS ASSIGNMENT": "rule met"
  },
  {
    "COMPOUND": "Cc1cc(-c2ccc(Cl)cc2)nn1-c1c(OC(=O)OCC(C)C)cnn(C)c1=O [Compound 57]",
    "CLASS ASSIGNMENT": "rule met"
  },
  {
    "COMPOUND": "CCc1cc(-c2ccc(C(F)(F)F)cc2)nn1-c1c(OS(C)(=O)=O)cnn(C)c1=O [Compound 19]",
    "CLASS ASSIGNMENT": "rule met"
  },
  {
    "COMPOUND": "CCc1c(C)c(-c2ccc(Cl)cc2)nn1-c1c(O)cnn(C)c1=O [Compound 26]",
    "CLASS ASSIGNMENT": "rule not met"
  }
]

Now look at this entry.
Determine whether this compound has Plant response rating, Wheat, Winter no lower than 60: Cc1cn(-c2ccc(Cl)cc2)nc1-c1c(O)cnn(C)c1=O [Compound 30] rule not met

---

system: large crabgrass (Digitaria sanguinalis); test: Test A pre-/postemergence plant response; assay type: in vivo; details: Postemergence, 125 g ai/ha; 0 to 100 scale, 0 no effect, 100 complete control
Returns: string. Value is Satisfied if measured Plant response rating, Crabgrass, Large is below 80, and Not satisfied if it is greater than or equal to it.

[
  {
    "MOL": "Cc1cn(-c2ccc(Cl)cn2)nc1-c1c(O)cnn(C)c1=O",
    "TARGET ENTITY": "large crabgrass (Digitaria sanguinalis)",
    "CLASS ASSIGNMENT": "Satisfied"
  },
  {
    "MOL": "Cc1cc(-c2ccc(Br)cc2)nn1-c1c(OC(=O)OC(C)C)cnn(C)c1=O",
    "TARGET ENTITY": "large crabgrass (Digitaria sanguinalis)",
    "CLASS ASSIGNMENT": "Not satisfied"
  },
  {
    "MOL": "C#CCOC(=O)Oc1cnn(C)c(=O)c1-n1nc(-c2ccc(Cl)cc2)cc1C",
    "TARGET ENTITY": "large crabgrass (Digitaria sanguinalis)",
    "CLASS ASSIGNMENT": "Satisfied"
  },
  {
    "MOL": "CCc1cc(-c2ccc(Cl)cc2)nn1-c1c(OC(=O)OC(C)C)cnn(C)c1=O",
    "TARGET ENTITY": "large crabgrass (Digitaria sanguinalis)",
    "CLASS ASSIGNMENT": "Not satisfied"
  },
  {
    "MOL": "CCc1cc(-c2ccc(Br)cc2)nn1-c1c(O)c(OC)nn(C)c1=O",
    "TARGET ENTITY": "large crabgrass (Digitaria sanguinalis)",
    "CLASS ASSIGNMENT": "Not satisfied"
  }
]

Threshold test, Plant response rating, Crabgrass, Large < 80: `Cc1cc(-c2ccc(OC(F)(F)F)cc2)nn1-c1c(OC(=O)OC(C)C)cnn(C)c1=O` Satisfied

Threshold test, Plant response rating, Crabgrass, Large < 80: `Cc1c(Br)c(-c2ccc(Br)cc2)nn1-c1c(O)cnn(C)c1=O` Satisfied
